Measured values drawn from patent US12590066B2 for this set.

Known CYP2D6 coenzyme activity (%) with respect to control group not treated of a selection of compounds
- target-entity: CYP2D6 (Homo sapiens)
- Construct: human liver microsomes (0.25 mg/mL); from tissue; host or cells: human liver microsomes
- Sequence (P10635 whole entry): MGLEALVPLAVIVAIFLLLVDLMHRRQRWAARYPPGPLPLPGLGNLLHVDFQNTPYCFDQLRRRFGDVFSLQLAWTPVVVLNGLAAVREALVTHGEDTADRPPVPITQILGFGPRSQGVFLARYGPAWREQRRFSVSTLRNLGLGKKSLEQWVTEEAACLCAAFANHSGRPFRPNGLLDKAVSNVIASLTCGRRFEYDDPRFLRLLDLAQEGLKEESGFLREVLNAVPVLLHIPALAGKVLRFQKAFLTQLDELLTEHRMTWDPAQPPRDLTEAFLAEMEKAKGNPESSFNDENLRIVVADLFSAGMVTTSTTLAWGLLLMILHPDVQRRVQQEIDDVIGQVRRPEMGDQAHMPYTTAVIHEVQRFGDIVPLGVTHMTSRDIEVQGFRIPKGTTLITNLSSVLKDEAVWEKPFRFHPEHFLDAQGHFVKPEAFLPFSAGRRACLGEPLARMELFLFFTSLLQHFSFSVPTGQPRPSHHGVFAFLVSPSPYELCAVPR
- assay: Inhibitory effect on CYP coenzyme activity, human liver microsomes
- Type: in vitro ADME
- reported-conditions: 10 μM compound, human liver microsomes 0.25 mg/mL, substrate dextromethorphan, 15 minutes
- Description: The inhibitory effects of the compounds prepared according to Examples 1 to 57 on CYP coenzyme activity were identified. […] Metabolites of each CYP coenzyme indicator drug generated through the reaction were analyzed using the Shimadzu Nexera XR system and TSQ Vantage (Thermo). […] The generated metabolites were quantified using a multiple reaction monitoring (MRM) quantification mode, and Xcalibur (version 1.6.1) was used for data analysis. […]
recorded-metric: CYP2D6 coenzyme activity (%) with respect to control group not treated

compound: Cn1c(=O)n(C)c2cc(NN=C(C#N)C#N)ccc21 [Compound 22]
bound-type: >
test-result: 100
--
compound: CC(C)n1c(=O)n(C(C)C)c2cc(NN=C(C#N)C#N)ccc21 [Compound 23]
bound-type: =
test-result: 95.3
--
compound: Cn1c(=O)n(C)c2cc(NN=C(C#N)C#N)c(Cl)cc21 [Compound 10]
bound-type: >
test-result: 100
--
compound: CCn1c(=O)n(C(C)C)c2ncc(NN=C(C#N)C#N)cc21 [Compound 55]
bound-type: =
test-result: 85.8
--
compound: CC(C)n1c(=O)sc2cc(NN=C(C#N)C#N)ccc21 [Compound 18]
bound-type: =
test-result: 88.1
--
compound: CC(C)n1c(=O)oc2cc(NN=C(C#N)C#N)ccc21 [Compound 20]
bound-type: =
test-result: 98.1
--
compound: CC(C)n1c(=O)n(C)c2ccc(NN=C(C#N)C#N)cc21 [Compound 36]
bound-type: >
test-result: 100
--
compound: CC(C)n1c(=O)oc2ccc(NN=C(C#N)C#N)cc21 [Compound 29]
bound-type: =
test-result: 94.2
--
compound: COc1cc(NN=C(C#N)C#N)cc2c1n(C)c(=O)n2C [Compound 33]
bound-type: >
test-result: 100
--
compound: Cc1cc2c(NN=C(C#N)C#N)cccc2c(=O)n1C [Compound 7]
bound-type: =
test-result: 86.2
--
compound: N#CC(C#N)=NNc1ccc2[nH]c(=O)oc2c1 [Compound 15]
bound-type: >
test-result: 100
--
compound: CC(C)n1ccc2ccc(NN=C(C#N)C#N)cc2c1=O [Compound 3]
bound-type: >
test-result: 100
--
compound: CCn1c(=O)n(C)c2ccc(NN=C(C#N)C#N)cc21 [Compound 35]
bound-type: >
test-result: 100
--
compound: Cn1c(=O)n(C(F)F)c2cc(NN=C(C#N)C#N)ccc21 [Compound 37]
bound-type: >
test-result: 100
--
compound: Cn1ccc2c(NN=C(C#N)C#N)cccc2c1=O [Compound 5]
bound-type: =
test-result: 93.1
--
compound: Cn1ccc2ccc(NN=C(C#N)C#N)cc2c1=O [Compound 2]
bound-type: =
test-result: 94.3
--
compound: Cn1c(=O)[nH]c2cc(NN=C(C#N)C#N)ccc21 [Compound 17]
bound-type: =
test-result: 87.1
--
compound: CCn1c(=O)n(C)c2cc(NN=C(C#N)C#N)ccc21 [Compound 38]
bound-type: >
test-result: 100
--
compound: Cc1cc(=O)n(C)c2ccc(NN=C(C#N)C#N)cc12 [Compound 27]
bound-type: =
test-result: 86.7
--
compound: CC(C)n1c(=O)n(C2CC2)c2ncc(NN=C(C#N)C#N)cc21 [Compound 53]
bound-type: >
test-result: 100
